These entries and their values trace back to paper PMC12695944.

assayed_target: T1, CDT1^ΔN (N-terminally truncated CDT1^158-546) (human, UniProt Q9H211 158-546)
T1 chain: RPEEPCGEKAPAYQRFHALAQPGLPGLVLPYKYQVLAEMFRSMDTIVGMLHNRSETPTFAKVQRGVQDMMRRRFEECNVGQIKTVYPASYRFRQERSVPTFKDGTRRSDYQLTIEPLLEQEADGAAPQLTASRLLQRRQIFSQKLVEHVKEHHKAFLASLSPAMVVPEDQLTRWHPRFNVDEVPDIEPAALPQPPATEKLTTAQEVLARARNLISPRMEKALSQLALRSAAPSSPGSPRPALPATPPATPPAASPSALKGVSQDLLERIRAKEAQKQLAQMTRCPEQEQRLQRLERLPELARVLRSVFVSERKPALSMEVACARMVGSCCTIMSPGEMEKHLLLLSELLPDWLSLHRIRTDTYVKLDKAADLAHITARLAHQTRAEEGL
protocol: SPR
result_type: Kd (nM)
Numeric only. Scale: nM

binder	Kd [nM]
Ac-SQYWKEVAEKRRKALYEALKENEKLHKEIEQKDNEIARLK-NH2 (peptide, UniProt O75496 96-135, looked up, Made on Rink amide resin; source: synthetic peptide) [Gem^96–135 (minimal CDT1-binding peptide)]	22
Ac-SQYWKEVAEKRRKALYEALKENEKLHKEIEQKDNEIARLKKENKE-NH2 (peptide, UniProt O75496 96-140, looked up, geminin, human, UniProt O75496, residues 96-140; Made on Rink amide resin; source: synthetic peptide) [Gem^96–140]	32

Field: next binder
**Query** Give recorded Kd. Gem^96–160 (geminin coiled-coil peptide) (peptide, UniProt O75496 96-160, looked up, geminin, human, UniProt O75496, residues 96-160 (the full coiled-coil); Made on Rink amide resin; source: synthetic peptide) peptide: Ac-SQYWKEVAEKRRKALYEALKENEKLHKEIEQKDNEIARLKKENKELAEVAEHVQYMAELIERLNG-NH2
**Result** 21
